target: cJun (60 amino acid construct encompassing the entire bZIP domain) (UniProt P05412 252-315); test: CD thermal denaturation; peptide (5 μM) with cJun (5 μM); ellipticity at 222 nm, 1°C to 90°C; 20 mM potassium phosphate, 150 mM potassium fluoride, 2 mM TCEP, pH 7.4; two-state fit gives the Tm of the peptide-cJun heterodimer; duplicate experiments; conditions: both partners purified
Sequence (P05412 252-315): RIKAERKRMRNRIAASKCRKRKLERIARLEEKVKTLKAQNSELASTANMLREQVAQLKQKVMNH
Positions of bridges follow the written chain, without caps; N, C: chain ends.
endpoint: Tm of the peptide-cJun heterodimer (°C)
Answer with a number only, understood to be in °C.

Query (protein): Ac-LARENEELEKEAEELVVEEDVLEEEIEQLEERNYALRKEIEDLQKQLEKL-NH2 (truncation NΔ10 CΔ3 of HW1; source: synthetic peptide (Fmoc SPPS, RP-HPLC purified)) [HW2] ; field requested: Tm of the peptide-cJun heterodimer
68.5

Query (protein): Ac-KEAEDLVVEEDVLEEEIEQLEERNYALRKEIKDLQDQ-NH2 (lactam 1-5, cyclized form of the pair HW18/HW19; NΔ19 CΔ7; source: synthetic peptide (Fmoc SPPS, on-resin lactamization, RP-HPLC purified)) [HW19] ; field requested: Tm of the peptide-cJun heterodimer
58.5

Query (protein): Ac-KEAEDLVVEEDVLEEEIEQLEERNYALRKEIKDLQDQ-NH2 (linear form of the pair HW18/HW19; NΔ19 CΔ7; source: synthetic peptide (Fmoc SPPS, RP-HPLC purified)) [HW18] ; field requested: Tm of the peptide-cJun heterodimer
56.5

Query (protein): Ac-LVVEEDVLEEEIEQLEEKNKALKDEIEDLQKQLEKLY-NH2 (linear form of the pair HW10/HW11; NΔ24 CΔ3 with point mutations for the bridging K and D; source: synthetic peptide (Fmoc SPPS, split batch, RP-HPLC purified)) [HW10] ; field requested: Tm of the peptide-cJun heterodimer
64.3

Query (protein): Ac-EAEELVVEEDVLEEEIEQLEERNYALRKEIEDLQ-NH2 (lactam 28-32, cyclized form of the pair HW16/HW17; NΔ20 CΔ9; source: synthetic peptide (Fmoc SPPS, on-resin lactamization, RP-HPLC purified)) [HW17] ; field requested: Tm of the peptide-cJun heterodimer
57.2

Query (protein): Ac-EAEELVVEEDVLEEEIKQLEDRNYALRKEIEDLQKQ-NH2 (linear form of the pair HW24/HW25; NΔ20 CΔ7; source: synthetic peptide (Fmoc SPPS, RP-HPLC purified)) [HW24] ; field requested: Tm of the peptide-cJun heterodimer
55.5

Query (protein): Ac-LEKEAEELVVEEDVLEEEIEQLEERNYALRKEIEDLQKQLEKL-NH2 (truncation NΔ17 CΔ3 of HW1; source: synthetic peptide (Fmoc SPPS, RP-HPLC purified)) [HW3] ; field requested: Tm of the peptide-cJun heterodimer
67.9

Query (protein): Ac-EAEELVVEEDVLEEEIEQLEEKNKALKDEIEDLQKQY-NH2 (linear form of the pair HW26/HW27; NΔ20 CΔ7; source: synthetic peptide (Fmoc SPPS, RP-HPLC purified)) [HW26] ; field requested: Tm of the peptide-cJun heterodimer
56.2

Query (protein): Ac-EAEELVVEEDVLEEEIEQLEERNYALRKEIEDLQKQ-NH2 (truncation NΔ20 CΔ7 of HW1; source: synthetic peptide (Fmoc SPPS, RP-HPLC purified)) [HW8] ; field requested: Tm of the peptide-cJun heterodimer
57.1

Query (protein): Ac-LVVEEDVLEEEIEQLEERNYALRKEIEDLQKQLEKL-NH2 (truncation NΔ24 CΔ3 of HW1; source: synthetic peptide (Fmoc SPPS, RP-HPLC purified)) [HW5] ; field requested: Tm of the peptide-cJun heterodimer
62.8

Query (protein): Ac-EAEELVVEEDVLEEEIEQLEERNYALRKEIKDLQDQ-NH2 (linear form of the pair HW28/HW29; NΔ20 CΔ7; source: synthetic peptide (Fmoc SPPS, RP-HPLC purified)) [HW28] ; field requested: Tm of the peptide-cJun heterodimer
55.6

Query (protein): HingeW (HW1) (TBS-selected 63-mer (acidic extension plus leucine zipper) with MAS N-cap and GAP C-cap; not shown: 6xHis, C-terminal, kept) peptide: MASLEQRAEELARENEELEKEAEELVVEEDVLEEEIEQLEERNYALRKEIEDLQKQLEKLGAP ; field requested: Tm of the peptide-cJun heterodimer
71.2

Query (protein): Ac-EAEELVVEEDVLEEEIEQLEERNYALRKEIEDL-NH2 (truncation NΔ20 CΔ10 of HW1; source: synthetic peptide (Fmoc SPPS, RP-HPLC purified)) [HW9] ; field requested: Tm of the peptide-cJun heterodimer
44.8

Query (protein): Ac-LVVEEDVLEEEIEQLEERNYALRKEIEDLQKQLEDL-NH2 (linear form of the pair HW12/HW13; NΔ24 CΔ3; source: synthetic peptide (Fmoc SPPS, split batch, RP-HPLC purified)) [HW12] ; field requested: Tm of the peptide-cJun heterodimer
62.1
